These entries and their values trace back to patent US10294207B2.

- targetUnderTest: TNIK (Homo sapiens)
- Construct: purchased Promega V4158
- Sequence (Q9UKE5 1-367 limits assumed): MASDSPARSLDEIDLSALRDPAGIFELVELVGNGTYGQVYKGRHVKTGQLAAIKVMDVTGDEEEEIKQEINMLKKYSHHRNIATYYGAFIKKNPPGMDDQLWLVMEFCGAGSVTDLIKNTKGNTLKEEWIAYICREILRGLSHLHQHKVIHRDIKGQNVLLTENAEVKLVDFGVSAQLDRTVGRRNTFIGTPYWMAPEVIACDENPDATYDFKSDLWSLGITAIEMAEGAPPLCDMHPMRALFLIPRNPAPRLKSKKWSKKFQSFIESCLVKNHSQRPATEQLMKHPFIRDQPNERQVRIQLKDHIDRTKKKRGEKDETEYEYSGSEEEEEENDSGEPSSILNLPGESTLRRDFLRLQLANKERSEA
- assayProtocol: TNIK inhibition, ADP-Glo Kinase Assay
- Format: biochemical
- particulars: luminometer
# key: entry, value: IC50
Response body: numeric value in µM, unit text excluded.

# example entries with known answers
>>> print(df.to_string())
                            substancesmiles      targetundertest  measurementname  reportedresult
0  Cc1cnc(-c2cc3[nH]nc(NC(=O)c4ccc(N(C)C)cc4)c3s2)s1  TNIK (Homo sapiens)             IC50            0.25
1  Cc1cnc(-c2cc3[nH]nc(-c4ccc(OCCN5CCOCC5)cc4)c3s2)o1  TNIK (Homo sapiens)             IC50            0.11
2  COC(=O)c1cc2[nH]nc(-c3ccc(NC(C)=O)cc3)c2s1  TNIK (Homo sapiens)             IC50            0.16
3         COC(=O)c1cc2[nH]nc(-c3ccccc3)c2s1  TNIK (Homo sapiens)             IC50            1.27
4  Cc1cnc(-c2cc3[nH]nc(NC(=O)c4ccc(N5CCOCC5)cc4)c3s2)o1  TNIK (Homo sapiens)             IC50           0.048

// next entry
Lab note: measured IC50 of COc1ccc(-c2n[nH]c3cc(C(=O)NC(C)C)sc23)cc1 was 2.86
